Test system: Fibroblast
assay text: Multiplex assay against human fibroblast
Type: toxicity, cell-based
protocol conditions: 48 h, 10 µM, compound concentration 10 uM, replicate 1
Think of 20% as a floor: if Population Pyknosed Nuclei (%) stands on it or above, it is YES; beneath it, NO.

Q: Check the entry `N#CCNC(=O)c1ccc(-c2ccnc(Nc3ccc(N4CCOCC4)cc3)n2)cc1` : does Population Pyknosed Nuclei (%) equal or exceed 20%?
Ans: NO

Q: Check the entry `CCCc1cc(C)[nH]c(=O)c1CNC(=O)c1cc(-c2ccc(N3CCN(C(C)C)CC3)nc2)cc2c1cnn2C(C)C` : does Population Pyknosed Nuclei (%) equal or exceed 20%?
Ans: YES

Q: Check the entry `Cl.NC[C@@H]1O[C@H](C23CC4CC(CC(C4)C2)C3)Cc2c1ccc(O)c2O` : does Population Pyknosed Nuclei (%) equal or exceed 20%?
Ans: YES

Q: Check the entry `CC(C)c1cc(Nc2nc(N3CCC[C@H](N)C3)ncc2C(N)=O)cc(C(C)C)n1` : does Population Pyknosed Nuclei (%) equal or exceed 20%?
Ans: YES

Q: Check the entry `C=CC(=O)Nc1cc(-n2c(=O)ccc3cnc4ccc(-c5ccc(NS(C)(=O)=O)cc5)cc4c32)ccc1C` : does Population Pyknosed Nuclei (%) equal or exceed 20%?
Ans: NO

Q: Check the entry `N#Cc1cccc(C(=O)Nc2cc(-c3ccccc3)nn2-c2ccccc2)c1` : does Population Pyknosed Nuclei (%) equal or exceed 20%?
Ans: YES

Q: Check the entry `Cc1ccc(S(=O)(=O)NC2c3ccccc3Oc3ccccc32)cc1` : does Population Pyknosed Nuclei (%) equal or exceed 20%?
Ans: NO

Q: Check the entry `C[C@@H](Oc1cc(-n2cnc3ccc(CN4CCN(C)CC4)cc32)sc1C(N)=O)c1ccccc1C(F)(F)F` : does Population Pyknosed Nuclei (%) equal or exceed 20%?
Ans: NO

* * *

Test system: Fibroblast
assay text: Multiplex assay against human fibroblast
Assay type: toxicity, cell-based
protocol conditions: 24 h, 1 µM, compound concentration 1 uM, replicate 2
Think of 20% as a floor: if Population Membrane Permeable-Phenotype (%) stands on it or above, it is condition met; beneath it, condition not met.

Q: Check the entry `Cc1c(Nc2ccc(S(=O)(=O)N3CCN(C)CC3)cc2F)nc2ccc(Nc3cnn(C4CC4)c3)cn2c1=O` : does Population Membrane Permeable-Phenotype (%) equal or exceed 20%?
Ans: condition met

Q: Check the entry `CCOC(=O)CCNc1cc(N2CCc3ccccc3CC2)nc(-c2ccccn2)n1` : does Population Membrane Permeable-Phenotype (%) equal or exceed 20%?
Ans: condition not met

Q: Check the entry Oc1cccc(-c2nc(N3CCOCC3)c3oc4ncccc4c3n2)c1 [PI-103] : does Population Membrane Permeable-Phenotype (%) equal or exceed 20%?
Ans: condition not met

Q: Check the entry `CC(C)c1cc(Nc2nc(N3CCC[C@H](N)C3)ncc2C(N)=O)cc(C(C)C)n1` : does Population Membrane Permeable-Phenotype (%) equal or exceed 20%?
Ans: condition met

Q: Check the entry CN1C(=O)[C@@H](NC(=O)c2cc3ccccc3[nH]2)N=C(c2ccccc2)c2ccccc21 [DEVAZEPIDE] : does Population Membrane Permeable-Phenotype (%) equal or exceed 20%?
Ans: condition not met

Q: Check the entry CC[C@@H]1C(=O)N(C)c2cnc(Nc3ccc(C(=O)NC4CCN(C)CC4)cc3OC)nc2N1C1CCCC1 [BI-2536] : does Population Membrane Permeable-Phenotype (%) equal or exceed 20%?
Ans: condition not met

Q: Check the entry C[C@@H](Oc1cc(-n2cnc3ccc(CN4CCN(C)CC4)cc32)sc1C(N)=O)c1ccccc1C(F)(F)F [GSK-461364] : does Population Membrane Permeable-Phenotype (%) equal or exceed 20%?
Ans: condition not met

Q: Check the entry CCCCCNC(=N)N/N=C/c1c[nH]c2ccc(OC)cc12.O=C(O)/C=C\C(=O)O [TEGASEROD MALEATE] : does Population Membrane Permeable-Phenotype (%) equal or exceed 20%?
Ans: condition not met
